- Test system: 4T1
- Experiment Description: % inhibition of 4T1 cell number vs DMSO control; higher = stronger growth inhibition
- Settings: 1 µM; 3 days; substrate: gelatin
Outcome: yes (1) for % inhibition of 4T1 cell number of at least 20%; no (0) for anything lower.

For this compound, is measured % inhibition of 4T1 cell number 20% or higher? O=C1NC(=O)c2c1c1c3ccccc3n3c1c1c2c2ccccc2n1[C@H]1CC[C@@H]3O1
yes (1)

For this compound, is measured % inhibition of 4T1 cell number 20% or higher? CC(C)(C)c1cc(C=C(C#N)C#N)cc(Br)c1O
no (0)

For this compound, is measured % inhibition of 4T1 cell number 20% or higher? NC(=NN=Cc1ccc(-c2cccc([N+](=O)[O-])c2)o1)N[N+](=O)[O-]
yes (1)

For this compound, is measured % inhibition of 4T1 cell number 20% or higher? COc1ccc2c(c[n+](C)c3c4cc5c(cc4ccc23)OCO5)c1OC [Chelerythrine Chloride]
no (0)

For this compound, is measured % inhibition of 4T1 cell number 20% or higher? COC(=O)[C@]1(O)C[C@@H]2O[C@@]1(C)n1c3ccccc3c3c4c(c5c6ccccc6n2c5c31)C(=O)NC4 [K-252a, Nocardiopsis sp.]
yes (1)

----------
Kindly supply the reported % inhibition of 4T1 cell number values for the records listed here.
- Tested on: 4T1
- Experiment Description: % inhibition of 4T1 cell number vs DMSO control; higher = stronger growth inhibition
- Settings: 1 µM; 3 days; substrate: plastic
Enter your answer as a number in %; do not include the unit.

Item COc1ccc2c(c[n+](C)c3c4cc5c(cc4ccc23)OCO5)c1OC [Chelerythrine Chloride] has what recorded % inhibition of 4T1 cell number?
-4.98

Item CC(C)(C)c1cc(C=C(C#N)C#N)cc(Br)c1O has what recorded % inhibition of 4T1 cell number?
35.7

Item O=[N+]([O-])/C=C/c1ccc2c(c1)OCO2 [Syk Inhibitor III] has what recorded % inhibition of 4T1 cell number?
-19.4

Item COc1ccc2c(c1)/C(=C/c1cnc[nH]1)C(=O)N2 has what recorded % inhibition of 4T1 cell number?
17.3

Item COC(=O)[C@]1(O)C[C@@H]2O[C@@]1(C)n1c3ccccc3c3c4c(c5c6ccccc6n2c5c31)C(=O)NC4 [K-252a, Nocardiopsis sp.] has what recorded % inhibition of 4T1 cell number?
91.5

Item O=C1NC(=O)c2c1c1c3ccccc3n3c1c1c2c2ccccc2n1[C@H]1CC[C@@H]3O1 has what recorded % inhibition of 4T1 cell number?
87.4

----------
- Test system: 4T1
- Experiment Description: % inhibition of 4T1 cell number vs DMSO control; higher = stronger growth inhibition
- Settings: 1 µM; 3 days; substrate: Matrigel
Parameter: % inhibition of 4T1 cell number (%)
Enter your answer as a number in %; do not include the unit.

Item COC(=O)[C@]1(O)C[C@@H]2O[C@@]1(C)n1c3ccccc3c3c4c(c5c6ccccc6n2c5c31)C(=O)NC4 [K-252a, Nocardiopsis sp.] has what recorded % inhibition of 4T1 cell number?
87.4

Item O=C1NC(=O)c2c1c1c3ccccc3n3c1c1c2c2ccccc2n1[C@H]1CC[C@@H]3O1 has what recorded % inhibition of 4T1 cell number?
30

Item O=[N+]([O-])/C=C/c1ccc2c(c1)OCO2 [Syk Inhibitor III] has what recorded % inhibition of 4T1 cell number?
-4.15

Item O=S(=O)(c1c(O)c(Cl)cc(Cl)c1Cl)c1c(O)c(Cl)cc(Cl)c1Cl [p38 MAP Kinase Inhibitor IV] has what recorded % inhibition of 4T1 cell number?
-24.4

Item COc1ccc2c(c[n+](C)c3c4cc5c(cc4ccc23)OCO5)c1OC [Chelerythrine Chloride] has what recorded % inhibition of 4T1 cell number?
20
